EXPERIMENT NOTES: xn = mol fraction of the nth substance listed
CONDITION DESCRIPTION: 323.15 K; 100 kPa; Liquid; Concentric cylinders viscometry; x1 = 0.5999
ENDPOINT: viscosity (mPa·s)

CCCCCCCC(=O)OCC [ethyl octanoate] + CC(C)CO	0.9556
CCOC(=O)CCC(=O)OCC [diethyl butanedioate] + CC(C)CO	1.249
CCOC(=O)CCC(=O)OCC [diethyl butanedioate] + CC(C)CCO	1.27
CCCCCCCC(=O)OCC [ethyl octanoate] + CC(C)CCO	0.9986

====

EXPERIMENT NOTES: xn = mol fraction of the nth substance listed
CONDITION DESCRIPTION: 318.15 K; 100 kPa; Liquid; Vibrating tube method; x1 = 0.5999
ENDPOINT: mass density (kg/m3)

CCCCCCCC(=O)OCC [ethyl octanoate] + CC(C)CCO	829.19
CCCCCCCC(=O)OCC [ethyl octanoate] + CC(C)CO	828.51
CCOC(=O)CCC(=O)OCC [diethyl butanedioate] + CC(C)CO	949.18
CCOC(=O)CCC(=O)OCC [diethyl butanedioate] + CC(C)CCO	943.61
